test: NCI Yeast Anticancer Drug Screen. Data for the rad50 strain (AID 155);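 also: 0% = growth of vehicle-only cultures of the same strain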; conditions: S. cerevisiae rad50 strain growth inhibition; at 100.0 µM; stronger effect = higher value
Compounds without any hit were thinned out: in the full panel of roughly 79,000, 15% have a hit.
recorded.endpoint: growth inhibition (%)
Reply with just the number (in %).

compound	recorded.endpoint	result.unit	measured.value
CCN(CC)CC(=O)c1ccc2cc(Cl)c3ccccc3c2c1	growth inhibition	%	98
CC(CC/C(=N/O)c1ccccc1)(CC/C(=N\O)c1ccccc1)[N+](=O)[O-] (configuration not stated)	growth inhibition	%	74
CCCCN(CCC#N)c1ccc(/C=C/c2ccnc3ccccc23)cc1	growth inhibition	%	72

Exercise: What growth inhibition value was documented for this compound, O=S1(=O)CCC2=CC(C(F)(F)F)=CC(C(F)(F)F)=CN21 ?
Key: 98

Exercise: Next compound: CCCCCCC1OCC(O)C(OCCCC)O1 (configuration not stated)
Key: 1

Exercise: Request: CCCCCCCN(CCCCCCC)CC(=O)c1ccc2cc(Cl)c3ccccc3c2c1
Key: 92

Exercise: Now the same for O=C(/C=C/c1ccsc1)c1cccs1
Key: 92
